# experimentalTarget: T1, naked peptide 1a MTPTDFTSPIPNMADDYGSESTSS (human)
# T1 construct: also called region 1-24
# T1 peptide: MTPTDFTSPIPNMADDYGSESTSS
# assayText: ELISA naked 24-mer; repI
measurementLabel: OD450 (OD)
One number for each entry, in OD.

Dear colleague, I am looking for the recorded OD450 of the following binder: CCR9_HUM2 scFv (humanized anti-CCR9 scFv, SEQ ID NO: 17 with C-terminal 6xHis tag) (scFv) scFv: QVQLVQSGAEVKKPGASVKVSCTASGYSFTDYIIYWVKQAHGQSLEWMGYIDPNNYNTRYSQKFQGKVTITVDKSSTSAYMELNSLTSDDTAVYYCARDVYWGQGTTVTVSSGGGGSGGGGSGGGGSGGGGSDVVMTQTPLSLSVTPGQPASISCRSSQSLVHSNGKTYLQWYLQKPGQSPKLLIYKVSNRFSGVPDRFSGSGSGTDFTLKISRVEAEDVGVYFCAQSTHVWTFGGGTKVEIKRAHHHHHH 0.05
